Study target: T1, APBA1_2, Q02410
T1 sequence (Q02410 742-832, limits assumed, looked up): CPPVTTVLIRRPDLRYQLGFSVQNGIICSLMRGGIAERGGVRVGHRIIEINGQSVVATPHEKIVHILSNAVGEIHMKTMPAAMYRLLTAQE
Experimental protocol: holdup assay
Design: key: below the threshold = too weak to quantify, mostly under pKd 3.1 to 4
Condition: plain residues with an end cap or a label only (N-terminal biotin on a linker: ahx)
Measure: pKd

See these solved cases before continuing.
| Binder | pKd |
| --- | --- |
| TQKFRASTAL [FRMPD1, Q5SYB0] | 3.5 |
| EKQAKGDTEF [CACYBP, Q9HB71] | below the threshold |
| APSRKLNTEI [TIAM1, Q13009] | below the threshold |
| TEAKLTETNA [MYO18A, Q92614] | below the threshold |

Request: Consider the binder QNTDDVQTSF [ACE2, Q9BYF1] and give its measured pKd.
Response: below the threshold

Request: Consider the binder QPRTWLQSPV [RTKN, Q9BST9] and give its measured pKd.
Response: below the threshold
